- assay.remarks: NCI Yeast Anticancer Drug Screen. Data for the bub3 strain (AID 167)
- test.parameters: S. cerevisiae bub3 mutant strain, at 50.0 µM (retest, dose inferred, filed as 5.0)
Compounds without any hit were thinned out: in the full panel of roughly 79,000, 15% have a hit. Activity calls are given as the source filed them. No stated cut-off is given here; in the data, active means growth inhibition above about 70%; inactive means the rest.
Outcome field: choose from 1 for active, -1 for inactive

Some solved cases for reference:
| molecule | label.class |
| --- | --- |
| COc1cc(/C=N/Nc2nnc3c4ccccc4c4ncccc4c3n2)cc(OC)c1OC | -1 |
| O=C(/C=C/c1cc(Cl)cc(Cl)c1O)c1cccc(O)c1 | 1 |
| OC(CCNCc1ccccc1)c1ccc2ccccc2c1 (stereo not drawn) | 1 |

Moving on to the next molecule.
Prompt: For this molecule, state the assay outcome: `CCCCOCn1c(=O)[nH]c(=O)c2cc(Br)ccc21`
Response: 1

The values you see were collected from PubChem BioAssay (NCI).
